- Tested On: GPR40 (Homo sapiens)
- Sequence (O14842 whole entry): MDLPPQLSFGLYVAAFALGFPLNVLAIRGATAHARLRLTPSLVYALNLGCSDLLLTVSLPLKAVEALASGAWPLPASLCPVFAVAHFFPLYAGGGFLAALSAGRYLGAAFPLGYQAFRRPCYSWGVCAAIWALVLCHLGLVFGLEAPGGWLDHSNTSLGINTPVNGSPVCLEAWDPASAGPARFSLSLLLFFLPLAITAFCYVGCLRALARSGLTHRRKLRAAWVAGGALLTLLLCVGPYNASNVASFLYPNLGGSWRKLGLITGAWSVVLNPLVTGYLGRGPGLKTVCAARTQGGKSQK
- Test Details: Inositol phosphate accumulation assay (A9_GPR40 cells)
- Type: cell-based
- Set-up: expressed in transfected cells; host or cells: CHO cells stably transfected with GPR40 and aequorin
- Protocol Conditions: inositol phosphate assay, A9_GPR40 cells, 1 hour; read-out: IP3 EC50
- Experimental: Briefly, the Aequorin assays were performed on doubly stable CHO cells expressing GPR40 and Aequorin DNA. […] The luminescence was recorded over a period of 20 seconds with a Microlumat luminometer (Berthold). […] The inositol phosphate assay was performed on an A9 cell line stably transfected with GPR40 (A9_GPR40). The cells were incubated with different concentrations of compounds and [^3H] inositol accumulation was measured after 1 hour. […]
Measured Metric: EC50

Past entries and their recorded results:
Incoming: Requested read-out: EC50. Entry: C=CC[C@H](CC(=O)O)c1cccc(OCc2ccc(-c3cccc(OC)c3)c(C(C)(C)C)c2)c1 (single isomer, unassigned) [Example 57]
Outgoing: 100 to 1000 nM

Incoming: Requested read-out: EC50. Entry: CCC(CC(=O)O)c1cccc(OCc2ccc(-c3cc(OC)ccc3F)c(C(C)(C)C)c2)c1F (single isomer, unassigned) [Example 77.2]
Outgoing: 100 to 1000 nM

Incoming: Requested read-out: EC50. Entry: CCC(CC(=O)O)c1cccc(OCc2ccc(-c3cc(OC)ccc3F)c(C(OC)C(C)(C)C)c2)c1F (single isomer, unassigned) [Example 77.4]
Outgoing: < 10 nM

***
Incoming: Requested read-out: EC50. Entry: COC(c1cc(COc2cccc(C(CC(=O)O)C3CC3)c2)ccc1-c1ccccc1F)C(C)(C)C (single isomer, unassigned) [Example 66.33]
Outgoing: 10 to 100 nM

Incoming: Requested read-out: EC50. Entry: CCC(CC(=O)O)c1cc(OCc2ccc(-c3cc(OC)ccc3F)c(C3=CCCC3(C)C)c2)ccc1F (single isomer, unassigned) [Example 76.1]
Outgoing: 10 to 100 nM

Incoming: Requested read-out: EC50. Entry: CCC(CC(=O)O)c1cccc(OCc2ccc(-c3cc(OC)ncc3F)c(C(O)(C(C)(C)C)C(C)(C)C)c2)c1F (single isomer, unassigned) [Example 77.11]
Outgoing: < 10 nM

Incoming: Requested read-out: EC50. Entry: COc1ccc(F)c(-c2ccc(COc3cccc(C(C)(C)CC(=O)O)c3)cc2C(C)(C)C)c1 [Example 85.1]
Outgoing: 100 to 1000 nM

Incoming: Requested read-out: EC50. Entry: COc1ccc(F)c(-c2ccc(COc3cccc([C@@H](CC(=O)O)C4CC4)c3)cc2CC(C)(C)C)c1 (single isomer, unassigned) [Example 66.17]
Outgoing: < 10 nM

Incoming: Requested read-out: EC50. Entry: COc1ccc(F)c(-c2ccc(COc3cccc(C4(CC(=O)O)CCCCC4)c3)cc2C2CCCC2(C)C)c1 (single isomer, unassigned) [Example 105.1]
Outgoing: 10 to 100 nM

Incoming: Requested read-out: EC50. Entry: COc1ccc(F)c(-c2ccc(COc3cccc(C(CC(=O)O)CC4CC4)c3)cc2C(C)(C)C)c1 (single isomer, unassigned) [Example 69.4]
Outgoing: 10 to 100 nM

Incoming: Requested read-out: EC50. Entry: COc1ccc(F)c(-c2ccc(COc3cccc(C(CC(=O)O)CC4CC4)c3)cc2C(OC)C(C)(C)C)c1 (single isomer, unassigned) [Example 69.35]
Outgoing: < 10 nM

Incoming: Requested read-out: EC50. Entry: COc1ccc(F)c(-c2ccc(COc3cccc([C@@H](CC(=O)O)C(F)(F)F)c3)cc2C(C)(C)C)c1 (single isomer, unassigned) [Example 6]
Outgoing: > 1000 nM
